Each item that follows carries a reported pIC50.
# STUDY TARGET: EBI2 (Homo sapiens)
# ASSAY EXPLANATION: Cell-based luminescent assay (EBI2 modulation)
# SETTINGS: cell-based luminescence; 7a,25-OHC final assay concentration 80 nM; 60 minutes incubation; read-out: IC50
pIC50: −log10 of the molar value.
REPORTED METRIC: pIC50

{"COMPOUND": "O=C(C#Cc1ccc2c(c1)OCO2)N1CCN(C(=O)c2ccc(C(F)(F)F)cc2)CC1 [Compound C266]", "STUDY TARGET": "EBI2 (Homo sapiens)", "TEST VALUE": "> 7.00"}
{"COMPOUND": "CC(C)(C)c1ccc(S(=O)(=O)N2CCN(C(=O)/C=C/c3ccc(Cl)cc3F)CC2)cc1 [Compound C448]", "STUDY TARGET": "EBI2 (Homo sapiens)", "TEST VALUE": "6.30 to 7.00"}
{"COMPOUND": "O=C(c1cc2cc(Cl)ccc2[nH]1)N1CCN(Cc2ccc(C(F)(F)F)cc2)CC1 [Compound C331]", "STUDY TARGET": "EBI2 (Homo sapiens)", "TEST VALUE": "> 7.00"}
{"COMPOUND": "O=C(C=C(Br)c1ccc(Br)cc1)N1CCN(C(c2ccccc2)c2ccccc2)CC1 [Compound C155]", "STUDY TARGET": "EBI2 (Homo sapiens)", "TEST VALUE": "> 7.00"}
{"COMPOUND": "O=C(C#Cc1cccc(Cl)c1)N1CCN(C(=O)c2ccc(Cl)cc2)CC1 [Compound C34]", "STUDY TARGET": "EBI2 (Homo sapiens)", "TEST VALUE": "> 7.00"}
{"COMPOUND": "O=C(c1ccc(Br)cc1)N1CCN(Cc2ccc(F)cc2)CC1 [Compound C165]", "STUDY TARGET": "EBI2 (Homo sapiens)", "TEST VALUE": "5.30 to 6.30"}
{"COMPOUND": "O=C(C#Cc1cc(F)cc(F)c1)N1CCN(C(=O)c2ccc(Cl)cc2)CC1 [Compound C343]", "STUDY TARGET": "EBI2 (Homo sapiens)", "TEST VALUE": "> 7.00"}
{"COMPOUND": "COc1cccc(S(=O)(=O)N2CCN(C(=O)/C=C/c3ccc(F)cc3)CC2)c1 [Compound C314]", "STUDY TARGET": "EBI2 (Homo sapiens)", "TEST VALUE": "> 7.00"}
{"COMPOUND": "O=C(Nc1ccc(F)cc1)c1cccc(CN2CCN(C(=O)c3cc4cc(Cl)ccc4[nH]3)CC2)c1 [Compound C187]", "STUDY TARGET": "EBI2 (Homo sapiens)", "TEST VALUE": "5.30 to 6.30"}
{"COMPOUND": "O=C(c1cn2ccccc2n1)N1CCN(C(=O)c2cc3cc(Cl)ccc3[nH]2)CC1 [Compound C279]", "STUDY TARGET": "EBI2 (Homo sapiens)", "TEST VALUE": "6.30 to 7.00"}
{"COMPOUND": "O=C(c1cc2ccccn2n1)N1CCN(C(=O)c2cc3cc(Cl)ccc3[nH]2)CC1 [Compound C278]", "STUDY TARGET": "EBI2 (Homo sapiens)", "TEST VALUE": "6.30 to 7.00"}
{"COMPOUND": "O=C(c1ccc2ncccc2c1)N1CCN(C(c2ccccc2)c2ccccc2)CC1 [Compound C110]", "STUDY TARGET": "EBI2 (Homo sapiens)", "TEST VALUE": "> 7.00"}
{"COMPOUND": "COc1ccc(C(=O)N2CCN(C(=O)c3cc4ccc(Cl)cc4[nH]3)CC2)cc1 [Compound C151]", "STUDY TARGET": "EBI2 (Homo sapiens)", "TEST VALUE": "> 7.00"}
{"COMPOUND": "CC(C)c1ccc(CN2CCN(C(=O)/C=C/c3ccc(Br)cc3)CC2)cc1 [Compound C103]", "STUDY TARGET": "EBI2 (Homo sapiens)", "TEST VALUE": "> 7.00"}
{"COMPOUND": "CC(C)(C)c1ccc(S(=O)(=O)N2CCN(C(=O)/C=C/c3ccccc3F)CC2)cc1 [Compound C190]", "STUDY TARGET": "EBI2 (Homo sapiens)", "TEST VALUE": "5.30 to 6.30"}
{"COMPOUND": "Cc1ccc2[nH]c(C(=O)N3CCN(Cc4ccc(F)cc4)CC3)cc2c1 [Compound C219]", "STUDY TARGET": "EBI2 (Homo sapiens)", "TEST VALUE": "> 7.00"}
{"COMPOUND": "Cc1ccc2[nH]c(C(=O)N3CCN(Cc4ccc5c(c4)OCO5)CC3)cc2c1 [Compound C111]", "STUDY TARGET": "EBI2 (Homo sapiens)", "TEST VALUE": "> 7.00"}

* * *

# STUDY TARGET: EBI2 (Homo sapiens, UniProt P32249)
# Sequence (P32249 whole entry): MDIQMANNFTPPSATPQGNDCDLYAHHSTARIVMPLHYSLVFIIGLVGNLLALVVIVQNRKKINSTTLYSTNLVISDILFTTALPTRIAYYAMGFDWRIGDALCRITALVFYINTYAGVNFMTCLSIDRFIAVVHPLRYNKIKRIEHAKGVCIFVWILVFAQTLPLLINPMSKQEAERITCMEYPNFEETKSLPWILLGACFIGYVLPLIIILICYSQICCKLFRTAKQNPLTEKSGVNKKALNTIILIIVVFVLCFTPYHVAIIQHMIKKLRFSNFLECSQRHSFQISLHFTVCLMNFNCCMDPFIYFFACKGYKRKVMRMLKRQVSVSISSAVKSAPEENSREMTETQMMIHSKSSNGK
# ASSAY EXPLANATION: Cell-based luminescent assay (EBI2 modulation)
# SETTINGS: cell-based luminescence; 7a,25-OHC final assay concentration 80 nM; 60 minutes incubation; read-out: IC50
pIC50: −log10 of the molar value.

{"SMILES NOTATION": "O=C(C#Cc1ccc(Br)cc1)N1CCN(C(=O)c2ccc(F)cc2C(F)(F)F)CC1", "pIC50": "> 7.00"}
{"SMILES NOTATION": "O=C(c1cc2cc(Cl)ccc2[nH]1)N1CCC(NC2CCCC2)CC1", "pIC50": "6.30 to 7.00"}
{"SMILES NOTATION": "COc1ccc2[nH]c(C(=O)N3CCN(C(c4ccccc4)c4ccccc4)CC3)cc2c1", "pIC50": "> 7.00"}
{"SMILES NOTATION": "CC(C)CC(=O)N1CCN(C(=O)/C=C/c2ccc(Br)cc2)CC1", "pIC50": "> 7.00"}

* * *

Each item that follows carries a reported IC50.
# STUDY TARGET: UniProtKB P32249
# ASSAY EXPLANATION: Cell-based luminescent assay (EBI2 modulation)
# SETTINGS: cell-based luminescence; 7a,25-OHC final assay concentration 80 nM; 60 minutes incubation; read-out: IC50

{"COMPOUND": "O=C(c1cc2cc(Cl)ccc2[nH]1)N1CCN(Cc2ccc(C(F)(F)F)c(F)c2)CC1", "IC50": "< 100 nM"}
{"COMPOUND": "Cc1ccc(C#CC(=O)N2CCN(C(=O)c3ccc(F)cc3C(F)(F)F)CC2)cc1", "IC50": "< 100 nM"}
{"COMPOUND": "O=C(c1cc[nH]c1)N1CCN(C(=O)c2cc3cc(Cl)ccc3[nH]2)CC1", "IC50": "500 to 5000 nM"}
{"COMPOUND": "O=C(/C=C/c1ccc(Br)cc1)N1CCN(Cc2cc(F)cc(F)c2)CC1", "IC50": "< 100 nM"}
{"COMPOUND": "CN(C)c1ccc(/C=C/C(=O)N2CCN(C(c3ccccc3)c3ccccc3)CC2)cc1", "IC50": "< 100 nM"}
{"COMPOUND": "O=C(/C=C/c1ccc(F)cc1)N1CCN(S(=O)(=O)c2ccc(Br)cc2)CC1 [Compound E2]", "IC50": "< 100 nM"}
{"COMPOUND": "COc1ccc(CN2CCN(C(=O)C#Cc3ccc(C)cc3)CC2)cc1", "IC50": "< 100 nM"}
{"COMPOUND": "O=C(C#Cc1ccc2c(c1)OCO2)N1CCN(C(=O)c2ccc(Cl)cc2)CC1", "IC50": "< 100 nM"}
{"COMPOUND": "O=Cc1ccc(C(=O)N2CCN(C(=O)c3cc4cc(Cl)ccc4[nH]3)CC2)cc1", "IC50": "< 100 nM"}
{"COMPOUND": "O=C(/C=C/c1ccc(F)cc1)N1CCCN(C(c2ccccc2)c2ccccc2)CC1", "IC50": "500 to 5000 nM"}
{"COMPOUND": "O=C(Oc1ccccc1)N1CCN(C(=O)c2cc3cc(Cl)ccc3[nH]2)CC1", "IC50": "100 to 500 nM"}
{"COMPOUND": "COc1ccc(CN2CCN(C(=O)/C=C/c3ccccc3)CC2)cc1", "IC50": "< 100 nM"}
{"COMPOUND": "O=C(c1cc2cc(Cl)ccc2[nH]1)N1CCC(Oc2cccc(Cl)c2)CC1", "IC50": "< 100 nM"}
{"COMPOUND": "O=C(/C=C/c1ccc(F)cc1)N1CCN(S(=O)(=O)c2ccc(F)cc2)CC1", "IC50": "< 100 nM"}
{"COMPOUND": "O=C(C#Cc1ccc(Cl)cc1)N1CCN(C(=O)c2ccc(C(F)(F)F)cc2)CC1", "IC50": "< 100 nM"}
{"COMPOUND": "O=C(C=Cc1ccc2c(c1)OCO2)N1CCN(Cc2ccc(F)cc2C(F)(F)F)CC1", "IC50": "500 to 5000 nM"}
{"COMPOUND": "O=C(c1cc2cc(Cl)ccc2[nH]1)N1CCN(C(c2ccccc2)c2ccccc2)CC1", "IC50": "< 100 nM"}
